# System: isolated bladder smooth muscle
# ASSAY COMMENT: Relaxing activity test against isolated bladder smooth muscle in rat
# EXPERIMENTAL CONTEXT: resting tension of isolated rat bladder; relaxation by 10 μM forskolin = 100%
READOUT LABEL: pEC50
Bear in mind: pEC50 is minus log10 of a mol/L concentration; give just that figure.

Solved entries (count: 4):
| MOLECULE | RECORDED NUMBER |
| --- | --- |
| C[C@H](NCc1cc(Cl)cc(Cl)c1)[C@H](O)c1ccc(O)c(NS(C)(=O)=O)c1 [Example 3] | 7.05 |
| COc1cc(CN[C@@H](C)[C@H](O)c2ccc(O)c(NS(C)(=O)=O)c2)cc(OC)c1 [Example 1] | 6.64 |
| COc1cc(CN[C@@H](C)[C@H](O)c2ccc(O)c(NS(C)(=O)=O)c2)cc(OC)c1OC [Example 4] | 7.13 |
| C[C@H](NCc1cc(C(F)(F)F)cc(C(F)(F)F)c1)[C@H](O)c1ccc(O)c(NS(C)(=O)=O)c1 [Example 2] | 7.44 |

Next:
Look up pEC50: Cc1cc(C)cc(CN[C@@H](C)[C@H](O)c2ccc(O)c(NS(C)(=O)=O)c2)c1 [Example 5]
6.82

====

# ASSAYED SYSTEM: human adrenergic β2 receptor (Homo sapiens, UniProt P07550)
# Construct: expressed in transfected cells; host or cells: CHO-K1 cells
# Sequence (P07550 whole entry): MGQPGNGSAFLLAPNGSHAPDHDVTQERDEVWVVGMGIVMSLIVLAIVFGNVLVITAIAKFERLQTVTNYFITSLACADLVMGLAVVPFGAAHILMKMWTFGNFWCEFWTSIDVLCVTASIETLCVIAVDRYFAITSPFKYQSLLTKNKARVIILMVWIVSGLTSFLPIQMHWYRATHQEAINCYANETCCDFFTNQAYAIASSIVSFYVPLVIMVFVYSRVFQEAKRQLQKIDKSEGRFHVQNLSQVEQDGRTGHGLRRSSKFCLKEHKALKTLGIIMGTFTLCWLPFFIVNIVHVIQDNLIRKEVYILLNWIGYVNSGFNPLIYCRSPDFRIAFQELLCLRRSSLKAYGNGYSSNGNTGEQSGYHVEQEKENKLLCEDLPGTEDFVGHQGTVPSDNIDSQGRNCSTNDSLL
# ASSAY COMMENT: Agonistic activity (cAMP production) against human adrenergic β2 receptor in CHO-K1 cells
# Type: cell-based
READOUT LABEL: pEC50
Bear in mind: pEC50 is minus log10 of a mol/L concentration; give just that figure.

Look up pEC50: C[C@H](NCc1cc(Cl)cc(Cl)c1)[C@H](O)c1ccc(O)c(NS(C)(=O)=O)c1
5.97

====

# ASSAYED SYSTEM: human adrenergic β3 receptor (Homo sapiens, UniProt P13945)
# Construct: evaluated using SK-N-MC cells in the presence of a selective adrenergic β1 receptor antagonist; endogenous in cells; host or cells: SK-N-MC cells
# Sequence (P13945 whole entry): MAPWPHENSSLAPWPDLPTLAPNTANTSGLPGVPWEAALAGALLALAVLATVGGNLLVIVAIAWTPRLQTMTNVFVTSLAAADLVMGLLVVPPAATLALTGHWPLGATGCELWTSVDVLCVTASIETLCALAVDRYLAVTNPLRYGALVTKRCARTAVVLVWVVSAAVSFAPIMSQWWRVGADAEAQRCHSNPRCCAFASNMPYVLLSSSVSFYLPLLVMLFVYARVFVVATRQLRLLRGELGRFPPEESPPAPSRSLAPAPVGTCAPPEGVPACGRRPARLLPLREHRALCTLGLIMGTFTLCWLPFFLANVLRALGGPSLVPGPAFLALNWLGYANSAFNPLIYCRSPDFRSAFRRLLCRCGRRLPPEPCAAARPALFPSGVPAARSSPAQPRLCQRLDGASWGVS
# ASSAY COMMENT: Agonistic activity (cAMP production) against human adrenergic β3 receptor in SK-N-MC cells
# Format: cell-based
List of EC50 values.
Only the number, expressed in nM, is required.

| COMPOUND SMILES | ASSAYED SYSTEM | EC50 [nM] |
| --- | --- | --- |
| Cc1cc(C)cc(CN[C@@H](C)[C@H](O)c2ccc(O)c(NS(C)(=O)=O)c2)c1 | human adrenergic β3 receptor (Homo sapiens, UniProt P13945) | 72.4 |

Look up EC50: C[C@H](NCc1cc(Cl)cc(Cl)c1)[C@H](O)c1ccc(O)c(NS(C)(=O)=O)c1
21.9

src = patent US8148427B2
